# ASSAY TARGET: LecA (Pseudomonas aeruginosa, UniProt Q05097)
# Construct: made in house
# Sequence (Q05097 whole entry): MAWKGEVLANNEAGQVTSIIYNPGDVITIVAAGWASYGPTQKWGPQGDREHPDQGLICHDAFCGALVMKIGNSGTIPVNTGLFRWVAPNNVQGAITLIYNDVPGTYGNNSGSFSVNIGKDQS
# TEST METHOD NOTES: Competitive binding assay based on fluorescence polarization, LecA
# PROTOCOL CONDITIONS: LecA 20 µM, reporter ligand S38, 2% DMSO; read-out: IC50 (competitive binding, FP)
ASSAY ENDPOINT: IC50 (µM)
The reply should contain only the number, in µM.

Q: Given the molecule O=[N+]([O-])c1ccc(O[C@@H]2O[C@H](CO)[C@H](O)[C@H](O)[C@H]2O)cc1 [para-nitrophenyl β-D-galactoside] , what is its reported IC50?
Ans: 39.7
